Test system: HeLa
Assay: Cytotoxicity against human HeLa cells after 72 hrs by MTT assay
Type: functional, cell-based
EXPERIMENTAL READOUT: pIC50
Note on units: pIC50 is unitless, being -log10 of a concentration expressed in mol/L.

Worked cases, answers included:
> print(dat)
                               input.smiles  observed.measurement
1  CSc1nc2c(Nc3cccc(/C(C)=N\O)c3)c3ccccc3nc2s1                  4.47
2  CCN(CC)CCNc1nc2c(Nc3ccccc3)c3ccccc3nc2s1                  4.80
3  CCN(CC)CCCNc1nc2c(Nc3ccccc3)c3ccccc3nc2s1                  5.20
4  CCN(CC)CCNc1nc2c(Nc3ccc(OC)cc3)c3ccccc3nc2s1                  4.87
5   COc1cccc(Nc2c3cc(F)ccc3nc3sc(SC)nc23)c1                  4.80

Consider the record given below.
Request the reported pIC50 associated with CCN(CC)CCNc1nc2c(Nc3ccc(Cl)cc3)c3ccccc3nc2s1
4.99

* * *

Collected IC50 values appear next to each entry.
Biological target: DNA topoisomerase 2-alpha (Homo sapiens, UniProt P11388)
Sequence (P11388 whole entry): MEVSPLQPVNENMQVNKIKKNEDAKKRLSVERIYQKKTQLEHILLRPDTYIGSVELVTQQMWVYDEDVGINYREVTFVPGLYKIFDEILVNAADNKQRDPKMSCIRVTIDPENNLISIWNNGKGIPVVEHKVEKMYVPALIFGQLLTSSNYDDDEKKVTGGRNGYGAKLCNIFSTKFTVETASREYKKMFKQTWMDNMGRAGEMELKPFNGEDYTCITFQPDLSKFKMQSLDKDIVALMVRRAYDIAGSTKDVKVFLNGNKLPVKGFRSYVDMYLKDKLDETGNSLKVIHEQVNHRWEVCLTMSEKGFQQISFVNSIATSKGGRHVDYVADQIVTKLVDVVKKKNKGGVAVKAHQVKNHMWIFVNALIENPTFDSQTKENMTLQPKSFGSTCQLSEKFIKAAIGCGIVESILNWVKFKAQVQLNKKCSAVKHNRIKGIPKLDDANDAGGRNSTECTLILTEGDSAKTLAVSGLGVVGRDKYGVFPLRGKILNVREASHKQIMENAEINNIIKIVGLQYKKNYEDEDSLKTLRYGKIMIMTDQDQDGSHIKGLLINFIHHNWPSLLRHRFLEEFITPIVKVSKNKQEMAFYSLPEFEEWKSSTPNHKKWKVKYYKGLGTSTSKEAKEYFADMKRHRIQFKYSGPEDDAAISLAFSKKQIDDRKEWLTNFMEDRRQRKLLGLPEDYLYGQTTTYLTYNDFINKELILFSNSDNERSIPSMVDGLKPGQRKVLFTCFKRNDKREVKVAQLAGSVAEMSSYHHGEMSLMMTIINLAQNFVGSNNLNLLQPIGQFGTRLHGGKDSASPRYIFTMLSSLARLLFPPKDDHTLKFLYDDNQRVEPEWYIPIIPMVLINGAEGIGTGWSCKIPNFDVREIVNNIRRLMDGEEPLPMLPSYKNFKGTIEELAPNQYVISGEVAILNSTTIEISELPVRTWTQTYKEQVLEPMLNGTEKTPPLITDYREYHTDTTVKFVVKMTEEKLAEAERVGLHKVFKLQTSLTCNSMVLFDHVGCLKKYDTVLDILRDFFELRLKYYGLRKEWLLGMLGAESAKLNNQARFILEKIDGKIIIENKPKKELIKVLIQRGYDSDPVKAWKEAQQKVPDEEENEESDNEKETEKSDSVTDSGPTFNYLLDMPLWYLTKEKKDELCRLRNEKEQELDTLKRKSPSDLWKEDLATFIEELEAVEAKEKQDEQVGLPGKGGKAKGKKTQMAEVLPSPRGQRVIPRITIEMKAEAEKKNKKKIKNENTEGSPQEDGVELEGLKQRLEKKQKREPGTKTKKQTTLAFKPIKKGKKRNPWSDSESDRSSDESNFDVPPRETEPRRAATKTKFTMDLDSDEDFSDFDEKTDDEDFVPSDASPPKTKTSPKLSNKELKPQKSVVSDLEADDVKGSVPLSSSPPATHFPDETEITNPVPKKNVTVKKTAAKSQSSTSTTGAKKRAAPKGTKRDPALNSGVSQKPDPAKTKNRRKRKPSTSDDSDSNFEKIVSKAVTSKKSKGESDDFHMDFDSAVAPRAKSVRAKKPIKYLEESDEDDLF
All answers are understood in µM, so give the number only.

Illustrative cases are given below, each with its answer.
> print(dat)
                                   compound  observed.measurement
1  CCN(CC)CCNc1nc2c(Nc3ccccc3)c3ccccc3nc2s1                   169
2      CNc1cccc(Nc2c3ccccc3nc3sc(SC)nc23)c1                  12.3
3       CSc1nc2c(Nc3cccc(N)c3)c3ccccc3nc2s1                  16.7

Field: next compound
Record COc1cc(NS(C)(=O)=O)ccc1Nc1c2ccccc2nc2ccccc12 [AMSACRINE] : what is its IC50 with DNA topoisomerase 2-alpha (Homo sapiens, UniProt P11388)?
9.94

* * *

Tested on: HeLa
Assay: Cytotoxicity against human HeLa cells after 72 hrs by MTT assay
Format: functional, cell-based
EXPERIMENTAL READOUT: pIC50
As a rule, pIC50 stands for the negative log10 of the concentration, concentration in M.

Please review the following examples before continuing.
> print(dat)
                               input.smiles  observed.measurement
1      CNc1cccc(Nc2c3ccccc3nc3sc(SC)nc23)c1                  4.34
2  CN1CCN(c2nc3c(Nc4ccccc4)c4ccccc4nc3s2)CC1                  4.22
3  CCN(CC)CCCNc1nc2c(Nc3cccc(Cl)c3)c3ccccc3nc2s1                  5.13

Field request: pIC50 | item: CCN(CC)CCNc1nc2c(Nc3cccc(Cl)c3)c3ccccc3nc2s1
5.04

Fill in: pIC50 of COc1cc(NS(C)(=O)=O)ccc1Nc1c2ccccc2nc2ccccc12 is ___
5.02

* * *

IC50 reference
Test system: SW-620
Experiment: Cytotoxicity against human SW620 cells after 72 hrs by MTT assay
Type: functional, cell-based
Settings: SW-620, 72 h

> print(dat)
                           input.smiles  experimental.readout  observed.measurement
1  CSc1nc2c(Nc3cccc(Cl)c3)c3ccccc3nc2s1                  IC50               > 80 µM
2       Clc1c2ccccc2nc2sc(N3CCCCC3)nc12                  IC50               > 80 µM

Form field: IC50 recorded for CCN(CC)CCCNc1nc2c(Nc3cccc(C#N)c3)c3ccccc3nc2s1 with SW-620 (enter value)
19.7 µM

Report IC50 for CSc1nc2c(Nc3cccc(/C(C)=N\O)c3)c3ccccc3nc2s1 tested on SW-620.
39.4 µM
